target: OsWRKY34 (Oryza sativa, UniProt Q0JBA9 1-250); experiment: protein-binding microarray (RPBM); PBS, 2% BSA, 51.3 ng/ul salmon testes DNA, 50 uM zinc acetate, 200 nM TF, 25 C, 1 h; high values mean tight binding; conditions: protein: recombinant; tags: N-terminal polyhistidine and DsRed monomer fusion (pET32a); label: CyDye5-dUTP incorporated in the synthesized complementary strand; 3' TTTTT single-stranded linker to array surface; dsDNA, one strand shown
Sequence (Q0JBA9 entry or part of it): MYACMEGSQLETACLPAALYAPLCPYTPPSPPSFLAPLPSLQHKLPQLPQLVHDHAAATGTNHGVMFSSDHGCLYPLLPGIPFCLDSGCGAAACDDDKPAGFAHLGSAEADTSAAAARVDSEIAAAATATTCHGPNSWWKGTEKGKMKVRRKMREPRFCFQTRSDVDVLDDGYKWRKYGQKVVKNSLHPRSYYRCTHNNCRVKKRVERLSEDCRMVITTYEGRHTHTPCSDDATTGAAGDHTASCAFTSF
Over roughly 68,000 sequences, “fluorescence intensity (a.u.)” has its median near 9,100; the highest 2% begin near 16,000. Only a selection was taken, and the highest values are over-represented in it overall.

>  <chain>
GGGATGGATGTGCTGGGTTGGTGGCTGGTTGGCTGGCCGGCGGAGTCACCTAGTGCAG

>  <binding signal>
11000 fluorescence intensity (a.u.)

$$$$
>  <chain>
TTTAATGTATCACACCGTTAATTTTTTTTCAACGTTTGACCGGAGTCACCTAGTGCAG

>  <binding signal>
8900 fluorescence intensity (a.u.)

$$$$
>  <chain>
GGTGACCATTCCTAGTTTCCTACCCCTCATGTTTTTCTTTCGGAGTCACCTAGTGCAG

>  <binding signal>
17000 fluorescence intensity (a.u.)

$$$$
>  <chain>
CATCGCCTCCGCTTCTGCTTTTTTTTTTCTTTTTTCTCGTCGGAGTCACCTAGTGCAG

>  <binding signal>
10200 fluorescence intensity (a.u.)

$$$$
>  <chain>
ATGTTGCCCTTTGTTCTGCTGTTTCCTGGTTATATGGGATCGGAGTCACCTAGTGCAG

>  <binding signal>
17500 fluorescence intensity (a.u.)

$$$$
>  <chain>
GGATCTCGTTTGTCTGGTTTTCGTAAGTTGAGGGACGGGTCGGAGTCACCTAGTGCAG

>  <binding signal>
8380 fluorescence intensity (a.u.)

$$$$
>  <chain>
AAATGTGGAATGGTTGGCCTGGGTTGGCTTGGGACGAGCTCGGAGTCACCTAGTGCAG

>  <binding signal>
17000 fluorescence intensity (a.u.)

$$$$
>  <chain>
TTGGTTTGTATTGCGTTGTTTTGCACTTTTGTTTGTTGTGCGGAGTCACCTAGTGCAG

>  <binding signal>
8300 fluorescence intensity (a.u.)

$$$$
>  <chain>
CTCTCGCGCGAGATGTCCGTGACTCTCTTTTCGTTTACACCGGAGTCACCTAGTGCAG

>  <binding signal>
8420 fluorescence intensity (a.u.)

$$$$
>  <chain>
CGCTCACTCGGTTTGGTTTGGTTTGGATTGTATTGGGTTGCGGAGTCACCTAGTGCAG

>  <binding signal>
39200 fluorescence intensity (a.u.)

$$$$
>  <chain>
GGCTTTGTATTTTGGTGTTGAGTCCCTTCCATACAAGAACCGGAGTCACCTAGTGCAG

>  <binding signal>
8040 fluorescence intensity (a.u.)

$$$$
>  <chain>
TGGGTGGTGTTGGTTTTGCATGGTAGACGCGGGGTCCGATCGGAGTCACCTAGTGCAG

>  <binding signal>
18400 fluorescence intensity (a.u.)

$$$$
>  <chain>
ATACTTCCTTTCTGTTTCCAGTGTCTCTCTTCATGCACTCCGGAGTCACCTAGTGCAG

>  <binding signal>
10700 fluorescence intensity (a.u.)

$$$$
>  <chain>
ATGGATCATGGATGGCTCCCGTTGTCATTGTCGCGTCGTCCGGAGTCACCTAGTGCAG

>  <binding signal>
9810 fluorescence intensity (a.u.)

$$$$
>  <chain>
TGTGTACTATTTTTTCTACCGTTGGATACAAATATGAGGGCGGAGTCACCTAGTGCAG

>  <binding signal>
8510 fluorescence intensity (a.u.)

$$$$
>  <chain>
ACCTGACTAGCAAGCAACAATCATGTAACTTTTCACCTTTCGGAGTCACCTAGTGCAG

>  <binding signal>
8070 fluorescence intensity (a.u.)

$$$$
>  <chain>
CCTTGTTTGCTCGGTTTTTGTAAGTTGAGGGACGGGTCATCGGAGTCACCTAGTGCAG

>  <binding signal>
18700 fluorescence intensity (a.u.)

$$$$
>  <chain>
TCCTTAGCTTCCTTCTGTCGACTTGTCTATTCTTTTTTTCCGGAGTCACCTAGTGCAG

>  <binding signal>
17700 fluorescence intensity (a.u.)

$$$$
>  <chain>
ACCTGTAAACTACCGTTGGATAAAAAATAAACGTATGAGACGGAGTCACCTAGTGCAG

>  <binding signal>
63600 fluorescence intensity (a.u.)

$$$$
>  <chain>
TGTTCTGGTTCGGATCTGAGCGGGTGTTGGGTGTTTTCAACGGAGTCACCTAGTGCAG

>  <binding signal>
9230 fluorescence intensity (a.u.)

$$$$
>  <chain>
TTTGGGGTTCAGCGGGCATTTGTTTTGATTGTTTCTTATTCGGAGTCACCTAGTGCAG

>  <binding signal>
23400 fluorescence intensity (a.u.)

$$$$
>  <chain>
CCGCATTTTAATGTATGACGTCATTGACTTTTCGATCAACCGGAGTCACCTAGTGCAG

>  <binding signal>
10200 fluorescence intensity (a.u.)

$$$$
>  <chain>
GTGTCCTTTTCTTTTTTTTCTTCTTTTCTTTTTCTTTTTCCGGAGTCACCTAGTGCAG

>  <binding signal>
9510 fluorescence intensity (a.u.)

$$$$
>  <chain>
TCTCTCTCCTTTTGTTGCTTCCATTTCTCGTTCTTGCACGCGGAGTCACCTAGTGCAG

>  <binding signal>
10500 fluorescence intensity (a.u.)

$$$$
>  <chain>
CTCGTCTGTTTTGTTTTCCCCTCCGACTCCGACTCCGATCCGGAGTCACCTAGTGCAG

>  <binding signal>
8180 fluorescence intensity (a.u.)

$$$$
>  <chain>
CATTTCTTATTTTGTTTTTGGGCTTTGATGTTTGGTTTCTCGGAGTCACCTAGTGCAG

>  <binding signal>
8740 fluorescence intensity (a.u.)

$$$$
>  <chain>
TTTTCGTGTTCGGGTTTGGGTTTGAGTGCCGCATCTGCAACGGAGTCACCTAGTGCAG

>  <binding signal>
21500 fluorescence intensity (a.u.)

$$$$
>  <chain>
TTAATGTATGACGCCGTTGACTTTTTAATCAACGTTTGACCGGAGTCACCTAGTGCAG

>  <binding signal>
25900 fluorescence intensity (a.u.)

$$$$
>  <chain>
TTTGTGTATTATTTGTATTGTGTTTGTGAATTCAATAAATCGGAGTCACCTAGTGCAG

>  <binding signal>
8800 fluorescence intensity (a.u.)

$$$$
>  <chain>
TTTACATCTAATATTTTTTATTTGGGGTTCAGCGGGCATTCGGAGTCACCTAGTGCAG

>  <binding signal>
11100 fluorescence intensity (a.u.)

$$$$
>  <chain>
TTCTTTTTCGTTTTCTTCTCATTCTTCTTTTTTTTCCTTTCGGAGTCACCTAGTGCAG

>  <binding signal>
14300 fluorescence intensity (a.u.)

$$$$
>  <chain>
CTTTTTTTTGGTTTGCCGTGTGGTGGGTTTCGGGTCCGCGCGGAGTCACCTAGTGCAG

>  <binding signal>
14500 fluorescence intensity (a.u.)

$$$$
>  <chain>
ATTCTCAAGTTTGAATTGGGTGTATTGGGTTGGGCTAAATCGGAGTCACCTAGTGCAG

>  <binding signal>
16700 fluorescence intensity (a.u.)

$$$$
>  <chain>
ACCTGTATTTGTCATTATTTAGTGGACTCTGCTTAGTTCTCGGAGTCACCTAGTGCAG

>  <binding signal>
19300 fluorescence intensity (a.u.)

$$$$
>  <chain>
GCACCTCTTTCCTATCACGCGTCACCTTGCTCCATTGTCGCGGAGTCACCTAGTGCAG

>  <binding signal>
19000 fluorescence intensity (a.u.)

$$$$
>  <chain>
CCTTTTGGACGTACGTCGATAGTTGGGTAAATATGAAAAACGGAGTCACCTAGTGCAG

>  <binding signal>
11400 fluorescence intensity (a.u.)

$$$$
>  <chain>
GTGTTTCCCATGGTTTGCACCAGTCTCCTCTGATGCAGTCCGGAGTCACCTAGTGCAG

>  <binding signal>
26400 fluorescence intensity (a.u.)

$$$$

----------
biological target: OsWRKY34 (Oryza sativa, UniProt Q0JBA9 1-250); assay: protein-binding microarray (RPBM); PBS, 2% BSA, 51.3 ng/ul salmon testes DNA, 50 uM zinc acetate, 200 nM TF, 25 C, 1 h; high values mean tight binding; conditions: protein: recombinant; tags: N-terminal polyhistidine and DsRed monomer fusion (pET32a); label: CyDye5-dUTP incorporated in the synthesized complementary strand; 3' TTTTT single-stranded linker to array surface; dsDNA, one strand shown
Over roughly 68,000 sequences, “fluorescence intensity (a.u.)” has its median near 9,100; the highest 2% begin near 16,000. What follows is part of a selection rich in the highest values, with near analogues and random picks from the rest.
sequences and their reported binding signal
readout_type: binding signal

>  <chain>
CTCTCGCTCTTTTATTTTTTTTCCTTGTTTCCTTTCGTGTCGGAGTCACCTAGTGCAG

>  <assay_value>
12100 fluorescence intensity (a.u.)

$$$$
>  <chain>
TGTTTTCACTTTCCTCTTCAGTCTTCTTCCTTCTTTCGTTCGGAGTCACCTAGTGCAG

>  <assay_value>
9140 fluorescence intensity (a.u.)

$$$$
>  <chain>
TTATTTTTCGTTCCTTCTTTTTTTCTCTCTCACTTTTCTCCGGAGTCACCTAGTGCAG

>  <assay_value>
11300 fluorescence intensity (a.u.)

$$$$
>  <chain>
TTGTTACTACATTTCCTGTACTATTTTACTGTCTGATTTACGGAGTCACCTAGTGCAG

>  <assay_value>
8460 fluorescence intensity (a.u.)

$$$$
>  <chain>
AGGTTATTTTTTCCTTACCTTTTTTTTTTCTGATACTACTCGGAGTCACCTAGTGCAG

>  <assay_value>
9920 fluorescence intensity (a.u.)

$$$$

src = paper PMC7819943
